tested on: RAW-Dual (murine macrophage reporter line); assay: viability score (confluency relative to resting cells, overnight) (fraction); higher = more viable, active = viable (0.7 or more); conditions: modulator concentration 10 µM
parameter: viability score
The reply should be a number, written without any unit.

Reference set, count: 8
Would you mind telling me what viability score value was observed for CCOc1ccc(C(CN)N2CCOCC2)cc1 (stereo not drawn) ? 0.941

What about this molecule? `Clc1cccc(OCCCOc2cccc3cccnc23)c1` 0.818

What would you report for `COc1cc(CNCc2ccc3ccccc3c2)cc(OC)c1` ? 0.589

Please do the same for `CN1CCN(c2ccc3nc(-c4c(N)c5c(F)cccc5[nH]c4=O)[nH]c3c2)CC1` as well. 0.799

Cool, now O=C(NCC1(O)CCOc2ccccc21)c1ccccc1C(F)(F)F (stereo not drawn) 0.574

Please answer likewise for `CC(=O)NC(NC(C)=O)c1cccc([N+](=O)[O-])c1` 0.995

// next record `Cc1[nH]nc(-c2ccc(OCc3ccccc3)c(C)c2O)c1-c1cnn(-c2ccccc2)c1` 1.01

Proceed to `CN(C)CCCOc1nn(Cc2ccccc2)c2ccccc12.Cl` 1

Others:
Consider the molecule shown here: `Cc1cc2nc3sc(=Cc4ccccc4OCc4ccc(Cl)cc4Cl)c(=O)n3c2cc1C` What is its recorded viability score? 0.999

Now this one: CCc1c(C)[nH]c2c1C(=O)C(CN1CCOCC1)CC2.Cl (stereo not drawn) 0.855

----------
system: RAW-Dual (murine macrophage reporter line); assay: NF-kB reporter (SEAP) activity fold change vs agonist alone; higher = enhanced NF-kB activity; settings: modulator concentration 10 µM; agonist: LPS 0.1 ug/mL
// label = satisfied if NF-kB reporter is not less than 1, otherwise not satisfied

Example results:
Could you please find out whether O=c1[nH]c(=O)n(C2CC(O)C(CO)O2)cc1F (stereo unspecified) has NF-kB reporter that meets 1 or exceeds it? not satisfied

And for CC(C)NCC(O)COc1cccc2ccccc12.Cl (stereo unspecified) ? satisfied

What do you get for CC(=O)N1CC(c2ccc(OC(C)C)cc2)CC1=O (stereo unspecified) ? satisfied

Another molecule to check: `Clc1ccc(Nc2nc(Nc3ccc(Cl)cc3)nc(N3CCOCC3)n2)cc1` not satisfied

Another molecule: `O=C(Nc1ccc([N+](=O)[O-])cc1Cl)c1cc(Cl)ccc1O` not satisfied

`COS(=O)(=O)[O-].C[N+]1(C)CCC(=C(c2ccccc2)c2ccccc2)CC1` , same question. satisfied

Let us now turn to `CN(C)CCOC1=Cc2ccccc2Sc2ccc(Cl)cc21` not satisfied

Another molecule: `COc1ccc(-c2noc(-c3ccc(=O)n(Cc4ncc(C)c(OC)c4C)c3)n2)cc1F` not satisfied

Continuing:
Does the reported NF-kB reporter for `CC(=O)Nc1cccs1` fall at or above the 1 mark? satisfied

Please answer likewise for `COc1cc(Nc2ncc3c(n2)-c2ccc(Cl)cc2C(c2c(F)cccc2OC)=NC3)ccc1C(=O)O` not satisfied

Follow-up entry: CCOP(C)(=O)C(c1ccccc1)N(C)S(C)(=O)=O (stereo unspecified) satisfied

----------
tested on: RAW-Dual (murine macrophage reporter line); assay: NF-kB reporter (SEAP) activity fold change vs agonist alone; higher = enhanced NF-kB activity; conditions: modulator concentration 10 µM; agonist: MPLA […]
parameter: NF-kB reporter
Form field (numeric): enter value without unit.

Which NF-kB reporter is listed for `C[C@@H](Oc1cc(-c2cnn(C3CCNCC3)c2)cnc1N)c1c(Cl)ccc(F)c1Cl` ? 1.47

For `COc1cc2nccc(Oc3ccc(NC(=O)Nc4cc(C)on4)c(Cl)c3)c2cc1OC` then? 0.639

Please answer likewise for CC1(C)CCCC2=C1CC1C(=O)NC(=O)C1C2 (centres undefined) 0.948

What do we get for O=C(NCC(O)c1ccc(C(F)(F)F)cc1)c1cc(Br)cs1 (centres undefined) ? 0.865

How about `Cc1cc2c(s1)Nc1ccccc1N=C2N1CCN(C)CC1` ? 0.929

Check CC(Oc1ccccc1)C(=O)NC1CC(C)(C)NC(C)(C)C1 (centres undefined) too. 1.06

Queued: `Cc1ccc(OCCCOc2cccc3cccnc23)c(Cl)c1` 0.877

Next compound: `CCn1cc(C(=O)NN)c(=O)c2cc(F)c(N3CCCCCC3)cc21` 0.979

More entries:
What value of NF-kB reporter has been recorded for this entry: `COc1ccc(CC(=O)N2CCC(N3CCC(OC)CC3)CC2)cc1OC` 0.893

What about OCCN1CCN(C(c2cccs2)c2ccc3cccnc3c2O)CC1 (centres undefined) ? 0.66

Could you do the same for `Cc1cc(C)nc(NS(=O)(=O)c2ccc(NC(=O)C=Cc3cccc4ccccc34)cc2)n1` , please? 1.17

Repeat for the following compound: COc1ccc(N2CC(C(=O)NCc3ccccc3C(F)(F)F)CC2=O)cc1 (centres undefined) 0.935

Please give the result for `Cc1cccc(N2C(=O)C(=Cc3cccc([N+](=O)[O-])c3)SC2=S)c1C` too. 0.937

Same thing, different compound: `Cc1cccc(-c2cc3nc(C)c(Cl)c(O)n3n2)c1` 0.948

Also, `Cc1ccc(C)c(C(=O)c2ccccc2NC(=O)c2ccccn2)c1` please. 0.839

Try this compound next: CCOC(=O)C1=C(CC)OC(N)=C(C#N)C1c1cccc(Oc2ccc(Cl)cc2)c1 (centres undefined) 0.769

Continue with `C#CCOC(=O)CCCC(=O)Nc1ccc([N+](=O)[O-])cc1Cl` 0.975

Further, for CCCCCCC1OCC2(CO)C(C)C=C(C)C1C2C (centres undefined) ? 0.716

Please give the result for C1=C(c2ccccc2)Nc2nnnn2C1c1ccccc1 (centres undefined) too. 0.996

Field entry: `Cc1ccc(-c2ncc(Cl)cc2-c2ccc(S(C)(=O)=O)cc2)cn1` 0.973

// query: CCC(C(=O)N1CC(Nc2cnccn2)C1)c1ccccc1 (centres undefined) 0.996

Also check `CCOc1ccc2nc(N(CCCN(C)C)C(=O)c3ccc(Br)s3)sc2c1.Cl` 0.855

Now consider `Cn1cnc2cc(NCc3nc4ccccc4n3C)ccc21` and answer again. 1.01

Try the compound `O=C(NCCN1CCOCC1)c1ccc(F)cc1` 1.01

Cool, now CCN(CC)CCOCCOC(=O)C1(c2ccccc2)CCCC1 [Prestw-387] 0.993

Cool, now CC(Cc1ccccc1)NC(=O)C1COc2ccccc2O1 (centres undefined) 1.13

Can you handle `O=C(Cc1ccc(Cl)cc1)Nc1ccc2oc(-c3c(F)c(F)c(F)c(F)c3F)nc2c1` next? 0.696
